# System: HCC-2998 colon
# protocol_summary: NCI-60 one-dose screen, 48 h (100 = growth as untreated, 0 = no growth, -100 = all killed)
# measurement_setup: 10 µM
Compounds without any hit were thinned out: in the full panel of roughly 83,000, 20% have a hit.
value_kind: growth (%)
The reply should contain only the number, in %.

Look up growth: Cc1cc(CC(C)CC(C)(C)C)n(O)c(=O)c1 (centres undefined) (tested in a mixture with another compound) 57.5

Look up growth: CN1CCc2c(sc3nc4n(-c5ccc(Cl)cc5)cnn4c(=O)c23)C1 104

Look up growth: CN1C(=O)C2(Nc3cc(Cl)ccc3S2)c2cc(Cl)ccc21 (centres undefined) 93.5

Look up growth: COc1ccc(C2=Cn3c(CCC(=O)c4nc5ccccc5[nH]4)nnc3SC2)cc1 127

Look up growth: NNC(=O)Oc1c(Cl)cc(Cl)cc1[N+](=O)[O-] 103

Look up growth: C=C1CCC2(C#N)[C@H]3[C@H](CC[C@@H]2C)[C@@H](C)C[C@@H](CC(C)(C)NC(=O)CN2CCC2=O)[C@H]13 (some centres undefined) 41.1

Look up growth: CC(C)(C)OC(=O)CN1CCc2c(sc3ncnc(N/N=C/c4ccccc4Br)c23)C1 76.3

Look up growth: CNS(=O)(=O)Oc1ccc(-c2ccc3occc3c2)cc1 96.5

Look up growth: COc1cc2cc(Oc3ccc(NC(=O)Nc4cccc(C(F)(F)F)c4)cc3)c(C)nc2cc1OC 25.4

Look up growth: COc1ccc(-c2nn(-c3cccc(Cl)c3)cc2/C=C2\NC(=S)N(c3ccc(Cl)cc3)C2=O)cc1 23.2

Look up growth: CCOC(=O)CSc1nc(-c2cc(OC)ccc2OC)cc(-c2ccc(OC)cc2)c1C#N 85.5

Look up growth: COc1ccc(C(=O)CC(CC(=O)c2ccc(OC)cc2)c2c(C)nn(-c3ccccc3)c2Cl)cc1 109

Look up growth: Cc1cccc(N=Cc2ccccc2O)c1C 104

Look up growth: CC(=O)Nc1ccc(S(=O)(=O)c2ccnc3cc(Cl)ccc23)cc1 100

Look up growth: O=C(N/N=C/c1ccc(Cl)cc1)c1ccccc1Nc1cccc(C(F)(F)F)c1 103

Look up growth: CC(=O)OC/C=C(/C)C[P+](c1ccccc1)(c1ccccc1)c1ccccc1 80.4

Look up growth: OC[C@H]1OC([S-])[C@H](O)[C@@H](O)[C@@H]1O.[Au+] (some centres undefined) 112

Look up growth: Cc1c2cnccc2c(C)c2c1oc1ccccc12 84.9

Look up growth: N#Cc1c(-c2ccc(Cl)cc2)csc1NC(=O)Nc1ccc(Cl)c(C(F)(F)F)c1 19.8

Look up growth: O=C(CN1CCN(C(=O)c2ccccc2)CC1)Nc1ccccc1SCc1ccccc1 93.6

Look up growth: C(=N\Nc1ncnc2sc3c(c12)CCNC3)/c1cccc2ccccc12 92.6

Look up growth: COc1cc(/C=C/c2cc(/C=C/c3ccc(O)c(OC)c3)n(C(=O)Nc3ccccc3Cl)n2)ccc1O 2.83

Look up growth: Cc1cc(CSc2ccccc2C(=O)N2CC=C(c3ccccc3)CC2)on1 93.3

Look up growth: IC(I)I 98

Look up growth: O=C(Nc1ccc(NS(=O)(=O)c2ccc(F)cc2)cc1)C12CC3CC(CC(C3)C1)C2 96.4

Look up growth: CCOC(=O)C1=CSC2=NC3=C(CCC/C3=C\c3ccc(Cl)cc3)C(c3ccc(Cl)cc3)N12 (centres undefined) 101

Look up growth: Cc1cc(=O)n2nnc3cc(C(F)(F)F)ccc3n12 104

Look up growth: COc1cccc(-c2nc3sccn3c2-c2cccc(S(C)(=O)=O)c2)c1 94

Look up growth: O=C(Nc1cc(Cl)cc2c1-c1ccc(Cl)cc1C2O)C(Cl)Cl (centres undefined) 95.2

Look up growth: CN(C)CCCOc1ccc(NC2=C(Cl)C(=O)C(Nc3ccc(OCCCN(C)C)cc3)=C(Cl)C2=O)cc1 -90.6

Look up growth: CN1CCN(CCCn2c(=O)c3sc4ncccc4c3n3nnc(-c4ccccc4)c23)CC1 -5.79

Look up growth: COc1ccc(/C=c2\sc3n(c2=O)C(c2cc(OC)c(OC)c(OC)c2)C=C(c2ccc(OC)c(OC)c2)N=3)cc1OC (centres undefined) 106

Look up growth: Cc1cc(Br)nnc1Br 108

Look up growth: CCCN(CCC)C(=O)[C@H](CC)[C@@H]1CC[C@@H](C)[C@@H]([C@H](C)[C@@H](O)[C@@H](C)C(=O)[C@H](CC)C2O[C@]3(C=C[C@@H](O)[C@]4(CC[C@@](C)([C@H]5CC[C@](O)(CC)[C@H](C)O5)O4)O3)[C@H](C)C[C@@H]2C)O1 (some centres undefined) 4.75

Look up growth: Cc1cn(-c2cccc(NC(=O)c3ccc(C)c(Nc4nccc(-c5cccnc5)n4)c3)c2)cn1 41.7

Look up growth: CCc1c2c(nc3ccc(OC(=O)N4CCC(N5CCCCC5)CC4)cc13)-c1cc3c(c(=O)n1C2)COC(=O)[C@]3(O)CC 28.2

Look up growth: O=C1CSC(=S)N1/N=C/c1ccc(Cl)s1 99.8

Look up growth: COc1ccc(-c2onc(N)c2-c2cc(OC)c3c(c2)OCO3)cc1 52.1

Look up growth: C[C@@H](O)[C@H]1C(=O)N2C(C(=O)O)=C(SC3CN[C@H](C(=O)N(C)C)C3)[C@H](C)[C@H]12 (some centres undefined) 106

----------
# System: HCT-15 colon
# protocol_summary: NCI-60 one-dose screen, 48 h
# measurement_setup: 10 µM
The panel holds about 83,000 compounds, 20% with a hit somewhere; the sample as a whole holds those more often. Calls of active or inactive are those of the source. Rule for the calls: active = growth percent below 10; inactive = the rest.
Give one outcome, nothing more. List: active, inactive

Test call for this molecule, please: Nc1nc(Cl)nc2c1ncn2C1O[C@H](CO)[C@@H](O)[C@@H]1F (stereo not given in full) inactive

Test call for this molecule, please: C[C@@H](O)[C@H]1C(=O)N2C(C(=O)O)=C(SCCN=CN)C[C@H]12 active

Test call for this molecule, please: O=[N+]([O-])c1ccc(/C(=C/c2ccccc2)[n+]2ccccc2)cc1 inactive

Test call for this molecule, please: Cn1c2ccccc2c2c3[nH][nH]c(=O)c3c3c4ccccc4[nH]c3c21 inactive

Test call for this molecule, please: O=C1c2ccccc2C(=O)c2c1ccc1c(=O)n(-c3ccccc3C(F)(F)F)nnc21 active

Test call for this molecule, please: CN1CCN(C2=Nc3ccccc3Oc3ccc(Cl)cc32)CC1 inactive

Test call for this molecule, please: O=[N+]([O-])c1cccc(/C=N/NC(=S)NC23CC4CC(CC(C4)C2)C3)c1 inactive

Test call for this molecule, please: Nc1cc(Br)c(-c2nn3c(CCC(=O)c4nc5ccccc5[nH]4)nnc3s2)c(Br)c1 inactive

Test call for this molecule, please: O=C(N/N=C/c1ccc(Cl)cc1)c1ccc(Cc2n[nH]c(=O)c3cccnc23)cc1 inactive

Test call for this molecule, please: Cc1ccc(/C=C2/C(=O)N(C)c3ccc(S(=O)(=O)Nc4ccc(C(C)(C)C)cc4)cc32)s1 inactive

----------
# System: DU-145 prostate
# protocol_summary: NCI-60 one-dose screen, 48 h (100 = growth as untreated, 0 = no growth, -100 = all killed)
# measurement_setup: 10 µM
About 83,000 compounds went through this panel and 20% of them were active in at least one assay; those are over-represented in the sample as a whole.
For each of the compounds below, state its growth.
The reply should contain only the number, in %.

Look up growth: CCCC1(CN2c3ccccc3Sc3ccc(Cl)cc32)CCN(CC)C1 (configuration not stated) -32.3

Look up growth: COc1cc(/C=C2\CCCC3C2=Nc2ccccc2NC3c2cc(OC)c(OC)c(OC)c2)cc(OC)c1OC (configuration not stated) 4.98

Look up growth: CS(=O)(=O)c1nccc(-c2c(-c3cccc(OCCc4ccccc4)c3)nc3sccn23)n1 108

Look up growth: CCCCC(CC)CN=C(N)NC(N)=NCCCCCCN=C(N)NC(N)=NCC(CC)CCCC (configuration not stated) -98.1

Look up growth: CN(C)CCOc1ccc(-c2nc3sccn3c2-c2ccnc(S(C)(=O)=O)n2)cc1 112

Look up growth: Nc1nccc(OCCO)n1 104

Look up growth: COc1ccc(-c2n[nH]nc2-c2cc(OC)c(OC)c(OC)c2)cc1 -14.1

Look up growth: S=C(SSC(=S)N(c1ccccc1)c1ccccc1)N(c1ccccc1)c1ccccc1 109

Look up growth: O=[N+]([O-])c1ccc(NCSc2ccc(Cl)cc2)cc1 98.3

Look up growth: COc1ccc(-c2n[nH]nc2-c2cc(OC)c3c(c2OC)OCO3)cc1 10.2

Look up growth: CN(C)c1ncnc2c1nnn2C1OC(CO)C(O)C1O (configuration not stated) 15.9

Look up growth: O=C(Cn1cc(CO)nn1)Nc1nc2ccccc2s1 113

Look up growth: COc1cccc(-c2nc3sccn3c2-c2cccc(S(C)(=O)=O)c2)c1 110

Look up growth: Clc1ccc2c(c1)C(N1CCNCC1)=Nc1ccccc1O2 68.4

Look up growth: CC(=O)OC1C=CC(OC(C)=O)O1 (configuration not stated) 101

Look up growth: COc1ccc(-c2nn(-c3cccc(Cl)c3)cc2C=C(C#N)C#N)cc1 3.57

Look up growth: CCN(CC)CCOc1cccc2c1C(=O)c1ccccc1C2=O 100
